- METHOD SUMMARY: Solubility of powder in urine
- CONDITION DESCRIPTION: Example 7; 16 mM in 50 milliliters of urine
OBSERVATION TYPE: Soluble?

Some compounds with recorded Soluble?:
COMPOUND	OBSERVATION TYPE	RESULT
Cc1ccc(Nc2ccc(Nc3ccc(C)cc3S(=O)(=O)[O-])c3c2C(=O)c2ccccc2C3=O)c(S(=O)(=O)[O-])c1.[Na+].[Na+] [D&C Green No. 5]	Soluble?	Yes
CC(=O)N(C)c1ccc(Nc2cc(S(=O)(=O)[O-])c(N)c3c2C(=O)c2ccccc2C3=O)cc1.[Na+] [Acid Blue 41]	Soluble?	Yes
Cc1ccc(Nc2ccc(Nc3ccc(C)cc3S(=O)(=O)[O-])c3c2C(=O)c2ccccc2C3=O)c(S(=O)(=O)[O-])c1.[Na+].[Na+] [Acid Green 25]	Soluble?	Mostly
O=C1c2ccccc2C(=O)c2c(Nc3cccc(S(=O)(=O)[O-])c3)c(Nc3ccc(S(=O)(=O)[O-])cc3)cc(O)c21.[Na+].[Na+] [Alizarin Blue Black B, Mordant Black 13 (Alizarin Blue Black B)]	Soluble?	Yes

Now consider a different compound.
Q) State its Soluble? for this compound: Cc1cc(C)c(S(=O)(=O)[O-])c(C)c1Nc1ccc(Nc2c(C)cc(C)c(S(=O)(=O)[O-])c2C)c2c1C(=O)c1ccccc1C2=O.[Na+].[Na+] [Acid Blue 80]
A) Mostly

====

- METHOD SUMMARY: Solubility of powder in urine
- CONDITION DESCRIPTION: Example 7; 16 mM in 50 milliliters of urine
OBSERVATION TYPE: Soluble?

Some molecules with recorded Soluble?:
> print(dat)
                      smiles.representation  result
1  Nc1c(S(=O)(=O)[O-])cc(Nc2ccccc2)c2c1C(=O)c1ccccc1C2=O.[Na+]  Mostly
2  Cc1ccc(Nc2ccc(O)c3c2C(=O)c2ccccc2C3=O)c(S(=O)(=O)[O-])c1.[Na+]      No
3  CCCCc1ccc(Nc2ccc(Nc3ccc(CCCC)cc3S(=O)(=O)[O-])c3c2C(=O)c2ccccc2C3=O)c(S(=O)(=O)[O-])c1.[Na+].[Na+]  Mostly
4  Cc1ccc(Nc2ccc(Nc3ccc(C)cc3S(=O)(=O)[O-])c3c2C(=O)c2c(O)ccc(O)c2C3=O)c(S(=O)(=O)[O-])c1.[Na+].[Na+]     Yes

Q) State its Soluble? for this molecule: Nc1cc(S(=O)(=O)[O-])c(O)c2c1C(=O)c1c(O)c(S(=O)(=O)[O-])cc(N)c1C2=O.[Na+].[Na+]
A) Mostly

====

- METHOD SUMMARY: Example 4 urine odor panel ranking
- Parameters: species or system Human
- CONDITION DESCRIPTION: 8 millimolar in urine, scale 1 to 7, 7 most malodorous
OBSERVATION TYPE: Urine Odor Ranking 2 (number of panelists)
Give bare numbers.

# per-item lookup of Urine Odor Ranking 2 (number of panelists); items listed below
1. Cc1ccc(Nc2ccc(Nc3ccc(C)cc3)c3c2C(=O)c2ccccc2C3=O)cc1 [Solvent Green 3]
2. Nc1c(S(=O)(=O)[O-])cc(Nc2cccc(S(=O)(=O)CCOS(=O)(=O)[O-])c2)c2c1C(=O)c1ccccc1C2=O.[Na+].[Na+] [Remazol Brilliant Blue R]
3. O=C1c2ccccc2C(=O)c2c(O)ccc(O)c21 [1,4-Dihydroxyanthraquinone, 1,4-dihydroxyanthraquinone]

A)
[1, 2, 1]

Q) State its Urine Odor Ranking 2 (number of panelists) for this compound: Nc1c(S(=O)(=O)O)cc(Nc2ccc(Nc3nc(Cl)nc(Nc4cccc(S(=O)(=O)O)c4)n3)c(S(=O)(=O)O)c2)c2c1C(=O)c1ccccc1C2=O [Procion Blue HB, Reactive Blue 2 (Procion Blue HB)]
A) 1
